Biological target: adrenergic alpha1A receptor (Homo sapiens, UniProt P35348)
Sequence (P35348 whole entry): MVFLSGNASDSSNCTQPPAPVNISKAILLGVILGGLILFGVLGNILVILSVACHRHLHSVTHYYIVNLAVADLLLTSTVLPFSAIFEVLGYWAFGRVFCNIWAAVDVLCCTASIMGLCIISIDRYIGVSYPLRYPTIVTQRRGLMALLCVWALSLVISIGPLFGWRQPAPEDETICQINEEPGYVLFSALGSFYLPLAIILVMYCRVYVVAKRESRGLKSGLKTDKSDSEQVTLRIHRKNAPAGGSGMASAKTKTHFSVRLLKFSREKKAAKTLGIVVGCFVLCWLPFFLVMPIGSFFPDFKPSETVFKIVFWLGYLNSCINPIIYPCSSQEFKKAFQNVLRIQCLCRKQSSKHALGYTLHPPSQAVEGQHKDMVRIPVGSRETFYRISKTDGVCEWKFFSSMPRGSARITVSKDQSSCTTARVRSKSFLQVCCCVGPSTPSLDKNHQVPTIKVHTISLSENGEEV
Assay: Displacement of [3H]-prazosin from human recombinant adrenergic alpha1A receptor at 1 uM incubated for 60 mins by radiometric scintillation analysis relative to control
Settings: probe [3H]-prazosin

structure_smiles_string: C#CCN(C)Cc1ccc(OCCCCCN2CCN(c3cccc4c3ccn4S(=O)(=O)c3ccccc3)CC2)cc1
inhibition at 1 h, 1 µM [%]: 37

###

Biological target: Amine oxidase [flavin-containing] B (Homo sapiens)
Sequence (P27338 whole entry): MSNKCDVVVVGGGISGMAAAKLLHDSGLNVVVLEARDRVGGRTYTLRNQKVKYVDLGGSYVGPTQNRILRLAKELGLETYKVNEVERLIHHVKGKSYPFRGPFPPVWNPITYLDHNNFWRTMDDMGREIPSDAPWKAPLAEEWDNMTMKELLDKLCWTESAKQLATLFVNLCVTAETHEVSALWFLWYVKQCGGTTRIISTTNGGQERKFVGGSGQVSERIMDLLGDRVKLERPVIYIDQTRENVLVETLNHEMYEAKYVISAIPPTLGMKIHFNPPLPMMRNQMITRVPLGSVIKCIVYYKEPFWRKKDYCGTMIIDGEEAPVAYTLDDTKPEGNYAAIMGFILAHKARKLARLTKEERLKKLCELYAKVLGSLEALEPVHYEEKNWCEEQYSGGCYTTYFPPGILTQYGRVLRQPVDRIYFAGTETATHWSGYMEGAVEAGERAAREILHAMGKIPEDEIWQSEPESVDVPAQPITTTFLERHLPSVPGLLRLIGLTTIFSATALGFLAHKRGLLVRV
Assay: Inhibition of recombinant human MAO-B expressed in baculovirus infected BTI insect cells using p-tyramine as substrate preincubated for 30 mins followed by substrate addition and measured after 1 hr by fluorimetric analysis
pIC50: −log10 of the molar value.
The entries below come with measured pIC50 values attached.

molecule: C[C@H](NCc1ccc(OCCCCCN2CCN(c3cccc4c3ccn4Cc3cccc(Cl)c3)CC2)cc1)C(N)=O
comparison_operator: <
pIC50: 6.00

molecule: C#CCN(C)Cc1ccc(OCCCCN2CCN(c3cccc4c3ccn4S(=O)(=O)c3ccccc3)CC2)cc1
comparison_operator: <
pIC50: 6.00

molecule: C#CCN(C)Cc1ccc(OCCCCCN2CCN(c3cccc4c3ccn4Cc3cccc(Cl)c3)CC2)cc1
comparison_operator: =
pIC50: 7.52

molecule: C#CCNC1CCc2c(OCCCCCN3CCN(c4cccc5c4ccn5Cc4cccc(Cl)c4)CC3)cccc21 (stereo unspecified)
comparison_operator: =
pIC50: 6.34

molecule: C#CCN(C)Cc1ccc(OCCCCCN2CCN(c3cccc4c3ccn4S(=O)(=O)c3ccccc3)CC2)cc1
comparison_operator: =
pIC50: 6.81

molecule: C[C@H](NCc1ccc(OCCCN2CCN(c3cccc4c3ccn4Cc3cccc(Cl)c3)CC2)cc1)C(N)=O
comparison_operator: <
pIC50: 6.00

###

experiment: Effective permeability of compound in PBS at pH 7.4 at 100 uM incubated for 5 hrs by PAMPA-BBB based UPLC-MS analysis; format: ADME; conditions: read-out: Peff

structure_smiles_string: C#CCN(C)Cc1ccc(OCCCCCN2CCN(c3cccc4c3ccn4S(=O)(=O)c3ccccc3)CC2)cc1
Papp at 5 h, 100 µM, ×10⁻⁶ cm/s: 4.84

###

The entries below come with measured inhibition at 1 µM values attached.
Molecular target: Amine oxidase [flavin-containing] B (Homo sapiens)
Sequence (P27338 whole entry): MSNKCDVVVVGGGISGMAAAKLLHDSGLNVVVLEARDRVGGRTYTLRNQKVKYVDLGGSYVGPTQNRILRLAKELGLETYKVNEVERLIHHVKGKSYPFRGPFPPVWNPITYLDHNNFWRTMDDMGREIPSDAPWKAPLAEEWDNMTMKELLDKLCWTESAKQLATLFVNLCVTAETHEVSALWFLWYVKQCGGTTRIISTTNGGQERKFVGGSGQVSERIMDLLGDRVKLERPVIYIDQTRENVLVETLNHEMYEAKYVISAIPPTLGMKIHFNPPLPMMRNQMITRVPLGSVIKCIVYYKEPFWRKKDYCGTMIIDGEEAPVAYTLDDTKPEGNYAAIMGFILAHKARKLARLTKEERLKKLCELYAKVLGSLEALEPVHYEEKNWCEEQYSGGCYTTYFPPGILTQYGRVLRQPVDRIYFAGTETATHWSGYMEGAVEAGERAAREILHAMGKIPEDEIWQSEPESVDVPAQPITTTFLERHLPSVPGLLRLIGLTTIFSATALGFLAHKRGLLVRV
Details: BTI, 1 h, read-out: INH
Description: Inhibition of recombinant human MAO-B expressed in baculovirus infected BTI insect cells at 1 uM using p-tyramine as substrate preincubated for 30 mins followed by substrate addition and measured after 1 hr by fluorimetric analysis relative to control

compound: C#CCNC1CCc2c(OCCCCCCN3CCN(c4cccc5c4ccn5Cc4cccc(Cl)c4)CC3)cccc21 (centres undefined)
tested_system: Amine oxidase [flavin-containing] B (Homo sapiens)
units_label: %
inhibition at 1 µM: 34
//
compound: Clc1cccc(Cn2ccc3c(N4CCNCC4)cccc32)c1
tested_system: Amine oxidase [flavin-containing] B (Homo sapiens)
units_label: %
inhibition at 1 µM: 3
//
compound: O=S(=O)(c1ccccc1)n1ccc2c(N3CCNCC3)cccc21
tested_system: Amine oxidase [flavin-containing] B (Homo sapiens)
units_label: %
inhibition at 1 µM: 3
//
compound: C[C@H](NCc1ccc(OCCCCCN2CCN(c3cccc4c3ccn4Cc3cccc(Cl)c3)CC2)cc1)C(N)=O
tested_system: Amine oxidase [flavin-containing] B (Homo sapiens)
units_label: %
inhibition at 1 µM: 43
//
compound: C[C@H](NCc1ccc(OCCCCCCN2CCN(c3cccc4c3ccn4Cc3cccc(Cl)c3)CC2)cc1)C(N)=O
tested_system: Amine oxidase [flavin-containing] B (Homo sapiens)
units_label: %
inhibition at 1 µM: 23
//
compound: C#CCN(C)Cc1ccc(OCCCCN2CCN(c3cccc4c3ccn4Cc3cccc(Cl)c3)CC2)cc1
tested_system: Amine oxidase [flavin-containing] B (Homo sapiens)
units_label: %
inhibition at 1 µM: 85
//
compound: C#CCNC1CCc2c(OCCCCCN3CCN(c4cccc5c4ccn5Cc4cccc(Cl)c4)CC3)cccc21 (centres undefined)
tested_system: Amine oxidase [flavin-containing] B (Homo sapiens)
units_label: %
inhibition at 1 µM: 80
//
compound: C#CCNC1CCc2c(OCCCCCN3CCN(c4cccc5c4ccn5S(=O)(=O)c4ccccc4)CC3)cccc21 (centres undefined)
tested_system: Amine oxidase [flavin-containing] B (Homo sapiens)
units_label: %
inhibition at 1 µM: 90
//
compound: C#CCN(C)Cc1ccc(OCCCCCN2CCN(c3cccc4c3ccn4Cc3cccc(Cl)c3)CC2)cc1
tested_system: Amine oxidase [flavin-containing] B (Homo sapiens)
units_label: %
inhibition at 1 µM: 100
